Experiment: Pharmacokinetic and bone marrow distribution study
Format: in vivo
Details: mouse; CD1 mice, 5 mg/kg iv, plasma
PROPERTY_MEASURED: half-life

| CHEMICAL_STRING | OBS_VALUE |
| --- | --- |
| C=CC(=O)Nc1cccc(-c2nc(Nc3ccc(N4CCOCC4)cc3)ncc2Cl)c1 | ~45 min |

====

Assay: Pharmacokinetic and bone marrow distribution study
Format: in vivo
Settings: mouse, bone marrow (femur) versus plasma; CD1 mice, 5 mg/kg iv; read-out: concentration in bone marrow compartment compared to plasma levels (fold less)
PROPERTY_MEASURED: fold lower concentration in bone marrow than in plasma

| CHEMICAL_STRING | OBS_VALUE |
| --- | --- |
| C=CC(=O)Nc1cccc(-c2nc(Nc3ccc(N4CCOCC4)cc3)ncc2Cl)c1 | ~50 |

Reference for the values: patent US8703767B2
